Tested on: Staphylococcus aureus
Assay: Antibacterial activity against methicillin-resistant Staphylococcus aureus EMRSA-15 after 20 hrs by broth microdilution method
Assay type: functional
Details: EMRSA-15, 20 h
metric: MIC (µg/mL)
Provide only the numeric value, understood in µg/mL.

Look over these answered cases.
compound	MIC / µg/mL
Cc1nc2ccc(C(=O)Nc3cccc(-c4ccc(-n5c(C)nc6cc(C(=O)NCCCN(C)C)ccc65)nc4)c3)cc2[nH]1	0.5
C[C@H]1COc2c(N3CCN(C)CC3)c(F)cc3c(=O)c(C(=O)O)cn1c23.C[C@H]1COc2c(N3CCN(C)CC3)c(F)cc3c(=O)c(C(=O)O)cn1c23.O [LEVOFLOXACIN]	8

Which measured MIC value corresponds to CC1(C)S[C@@H]2[C@H](NC(=O)[C@H](N)c3ccc(O)cc3)C(=O)N2[C@H]1C(=O)O [AMOXICILLIN] ? 128

Which measured MIC value corresponds to Cc1nc2ccc(C(=O)Nc3cccc(-c4ccc(-n5c(C)nc6cc(C(=O)NCCN(C)C)ccc65)nc4)c3)cc2[nH]1 ? 2

---

System: Staphylococcus aureus
Assay: Bactericidal activity against methicillin-resistant Staphylococcus aureus EMRSA-15 assessed as time required to kill bacteria by >6 log10CFU/ml at 4 times MIC by Miles Misra dilution method
Format: functional
metric: Time (h)
Provide only the numeric value, understood in h.

Look over these answered cases.
test smiles	metric	recorded measurement
C[C@H]1COc2c(N3CCN(C)CC3)c(F)cc3c(=O)c(C(=O)O)cn1c23.C[C@H]1COc2c(N3CCN(C)CC3)c(F)cc3c(=O)c(C(=O)O)cn1c23.O	Time	24
Cc1nc2ccc(C(=O)Nc3cccc(-c4ccc(-n5c(C)nc6cc(C(=O)NCCCCN(C)C)ccc65)nc4)c3)cc2[nH]1	Time	2
Cc1nc2ccc(C(=O)Nc3cccc(-c4ccc(-n5c(C)nc6cc(C(=O)NCCN(C)C)ccc65)nc4)c3)cc2[nH]1	Time	4

Then this molecule:
Which measured Time value corresponds to Cc1nc2ccc(C(=O)Nc3cccc(-c4ccc(-n5c(C)nc6cc(C(=O)NCCCN(C)C)ccc65)nc4)c3)cc2[nH]1 ? 2

---

Assay: Stabilization of FAM/TAMRA-labeled AT-rich DNA duplex (unknown origin) assessed as change in melting temperature at 1 uM by FRET-based assay
metric: deltaTm
Give the number first and the unit second.

Which measured deltaTm value corresponds to Cn1cc(NC(=O)c2cc(NC(=O)CN=C(N)N)cn2C)cc1C(=O)NCCC(=N)N [NETROPSIN] ? 16.5 °C

Which measured deltaTm value corresponds to Cc1nc2ccc(C(=O)Nc3cccc(-c4ccc(-n5c(C)nc6cc(C(=O)NCCCN(C)C)ccc65)nc4)c3)cc2[nH]1 ? 0.4 °C

Which measured deltaTm value corresponds to Cc1nc2ccc(C(=O)Nc3cccc(-c4ccc(-n5c(C)nc6cc(C(=O)NCCCCN(C)C)ccc65)nc4)c3)cc2[nH]1 ? 0.3 °C

Which measured deltaTm value corresponds to Cc1nc2ccc(C(=O)Nc3cccc(-c4ccc(-n5c(C)nc6cc(C(=O)NCCN(C)C)ccc65)nc4)c3)cc2[nH]1 ? 0.2 °C

---

Tested on: Staphylococcus aureus
Assay: Antibacterial activity against methicillin-resistant Staphylococcus aureus EMRSA-15 after 20 hrs by broth microdilution method
Assay type: functional
Settings: EMRSA-15, 20 h
metric: MIC

Which measured MIC value corresponds to Cc1nc2cc(C(=O)NCCCN(C)C)ccc2n1-c1ccc(-c2cccc(N)c2)cn1 ? > 128 µg/mL

Which measured MIC value corresponds to Cc1nc2ccc(C(=O)Nc3cccc(-c4ccc(-n5c(C)nc6cc(C(=O)NCCCN7CCOCC7)ccc65)nc4)c3)cc2[nH]1 ? > 128 µg/mL

Which measured MIC value corresponds to Cc1nc2ccc(C(=O)Nc3cccc(-c4ccc(-n5c(C)nc6cc(C(=O)NCCCN7CCCC7)ccc65)nc4)c3)cc2[nH]1 ? > 128 µg/mL

Which measured MIC value corresponds to COC(=O)c1ccc2c(c1)nc(C)n2-c1ccc(-c2cccc(NC(=O)c3ccc4nc(C)[nH]c4c3)c2)cn1 ? > 32 µg/mL

Which measured MIC value corresponds to Cc1nc2cc(C(=O)NCCCN(C)C)ccc2n1-c1ccc(-c2cccc(NC(=O)c3ccccc3)c2)cn1 ? > 128 µg/mL

Which measured MIC value corresponds to Cc1nc2ccc(-c3cccc(-c4ccc(-n5c(C)nc6cc(C(=O)NCCCN(C)C)ccc65)nc4)c3)cc2[nH]1 ? > 128 µg/mL

Which measured MIC value corresponds to COC(=O)c1ccc2c(c1)nc(C)n2-c1ccc(-c2cccc(NC(=O)c3ccc4nc(CCCN(C)C)[nH]c4c3)c2)cn1 ? > 128 µg/mL

Which measured MIC value corresponds to Cc1nc2ccc(C(=O)Nc3cccc(-c4ccc(-n5c(C)nc6cc(C(=O)NCCCCN(C)C)ccc65)nc4)c3)cc2[nH]1 ? 1 µg/mL
